- Study Target: Cynomolgus Factor P (cynomolgus)
- Method: cell-based or functional assay
Measured Metric: Hemolytic assay IC50 (nM), 10% serum

Hemolytic assay IC50 (nM), 10% serum measured on NVS962-S (Fab, V domains shown, NVS962 with heavy chain N30 replaced with serine) VH: EVQLVQSGAEVKKPGSSVKVSCKASGGTFSSYAISWVRQAPGQGLEWMGRIIPIFGTANYAQKFQGRVTITADESTSTAYMELSSLRSEDTAVYYCARHGGYSFDSWGQGTLVTVSS VL: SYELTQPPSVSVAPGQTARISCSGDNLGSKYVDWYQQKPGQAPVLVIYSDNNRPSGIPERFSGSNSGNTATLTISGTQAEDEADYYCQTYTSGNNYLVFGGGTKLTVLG = 12 nM

Data point: NVS804 (Fab, V domains shown) VH: EVQLVQSGAEVKKPGSSVKVSCKASGGTFSSYAISWVRQAPGQGLEWMGRIIPIFGTANYAQKFQGRVTITADESTSTAYMELSSLRSEDTAVYYCARHGGYIFDSWGQGTLVTVSS VL: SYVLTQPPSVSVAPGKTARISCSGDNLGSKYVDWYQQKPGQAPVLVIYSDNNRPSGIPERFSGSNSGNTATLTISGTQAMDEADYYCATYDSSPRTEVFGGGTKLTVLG ; Hemolytic assay IC50 (nM), 10% serum = 14.4 nM

Field Hemolytic assay IC50 (nM), 10% serum (entry NVS807 (Fab, V domains shown) VH: EVQLVQSGAEVKKPGSSVKVSCKASGGTFSSYAISWVRQAPGQGLEWMGRIIPIFGTANYAQKFQGRVTITADESTSTAYMELSSLRSEDTAVYYCARHGGYYFDSWGQGTLVTVSS VL: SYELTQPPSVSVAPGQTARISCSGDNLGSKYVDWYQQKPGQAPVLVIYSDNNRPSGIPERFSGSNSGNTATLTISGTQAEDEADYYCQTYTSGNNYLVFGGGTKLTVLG ) reads 12.6 nM

Reported Hemolytic assay IC50 (nM), 10% serum ( NVS962-Q (Fab, V domains shown, NVS962 with heavy chain N30 replaced with glutamine (deamidation site removed)) VH: EVQLVQSGAEVKKPGSSVKVSCKASGGTFQSYAISWVRQAPGQGLEWMGRIIPIFGTANYAQKFQGRVTITADESTSTAYMELSSLRSEDTAVYYCARHGGYSFDSWGQGTLVTVSS VL: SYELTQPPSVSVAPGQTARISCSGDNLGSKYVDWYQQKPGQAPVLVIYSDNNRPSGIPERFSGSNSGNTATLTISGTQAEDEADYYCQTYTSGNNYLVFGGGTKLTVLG ) = 14.7 nM

The recorded Hemolytic assay IC50 (nM), 10% serum for entry NVS962-S31A (Fab, V domains shown, NVS962 with heavy chain serine 31 replaced with alanine) VH: EVQLVQSGAEVKKPGSSVKVSCKASGGTFNAYAISWVRQAPGQGLEWMGRIIPIFGTANYAQKFQGRVTITADESTSTAYMELSSLRSEDTAVYYCARHGGYSFDSWGQGTLVTVSS VL: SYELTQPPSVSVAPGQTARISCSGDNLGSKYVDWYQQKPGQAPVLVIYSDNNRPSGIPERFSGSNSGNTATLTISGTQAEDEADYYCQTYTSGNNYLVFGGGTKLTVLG equals 11.6 nM

The reported Hemolytic assay IC50 (nM), 10% serum of the binder NVS809 (Fab, V domains shown) VH: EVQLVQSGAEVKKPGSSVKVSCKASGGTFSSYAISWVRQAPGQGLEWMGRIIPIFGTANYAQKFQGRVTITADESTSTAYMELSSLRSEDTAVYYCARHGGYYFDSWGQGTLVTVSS VL: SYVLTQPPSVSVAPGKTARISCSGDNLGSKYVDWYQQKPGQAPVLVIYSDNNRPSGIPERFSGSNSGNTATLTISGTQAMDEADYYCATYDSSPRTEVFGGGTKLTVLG was 12.8 nM

Entry NVS808 (Fab, V domains shown) VH: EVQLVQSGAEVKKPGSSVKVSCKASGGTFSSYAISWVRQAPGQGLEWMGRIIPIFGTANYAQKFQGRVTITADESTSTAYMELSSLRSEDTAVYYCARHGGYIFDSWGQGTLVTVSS VL: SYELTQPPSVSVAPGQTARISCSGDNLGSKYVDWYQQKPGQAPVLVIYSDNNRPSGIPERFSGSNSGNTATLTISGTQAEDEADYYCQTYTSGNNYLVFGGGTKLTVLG , Hemolytic assay IC50 (nM), 10% serum reported as 15.5 nM

Please fill in: Hemolytic assay IC50 (nM), 10% serum reported for NVS967 (Fab, V domains shown, Disulfide-bridged Fab; also called Fab NVS967) VH: EVQLVQSGAEVKKPGASVKVSCKASGYTFTSHYMHWVRQAPGQGLEWMGNINPVDGGTEYAQKFQGRVTMTRDTSISTAYMELSSLRSEDTAVYYCARDGIEHGGHYYWGYLFDIWGQGTLVTVSS VL: SYVLTQPPSVSVAPGKTARISCSGDSIREYYVHWYQQKPGQAPVLVIGDDTNRPSGIPERFSGSNSGNTATLTISRAQAGDEADYYCAAWDFSPAIVFGGGTKLTVLG = 14 nM

Hemolytic assay IC50 (nM), 10% serum reported for this binder NVS962-T (Fab, V domains shown, NVS962 with heavy chain N30 replaced with threonine; also called NSV962-T) VH: EVQLVQSGAEVKKPGSSVKVSCKASGGTFTSYAISWVRQAPGQGLEWMGRIIPIFGTANYAQKFQGRVTITADESTSTAYMELSSLRSEDTAVYYCARHGGYSFDSWGQGTLVTVSS VL: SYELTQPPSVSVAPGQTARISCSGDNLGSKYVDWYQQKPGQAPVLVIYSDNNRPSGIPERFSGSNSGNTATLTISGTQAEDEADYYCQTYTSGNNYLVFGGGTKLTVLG : 12.5 nM

// sample NVS964 (Fab, V domains shown, Disulfide-bridged Fab; also called Fab NVS964) VH: EVQLVQSGAEVKKPGASVKVSCKASGYTFTSHYMHWVRQAPGQGLEWMGKINADLGDTNYAQKFQGRVTMTRDTSISTAYMELSSLRSEDTAVYYCARDGIEHGGHYYWGYLFDIWGQGTLVTVSS VL: SYELTQPPSVSVAPGQTARISCSGDSIREYYVHWYQQKPGQAPVLVIGDDTNRPSGIPERFSGSNSGNTATLTISGTQAEDEADYYCAAWDFSPAIVFGGGTKLTVLG , its Hemolytic assay IC50 (nM), 10% serum was 13.4 nM
